- measurement_target: SMARCA4-HiBiT HeLa cells (protein which is expressed from the SMARCA4 gene) (Homo sapiens, UniProt P51532)
- Construct: protein which is expressed from the SMARCA2 and SMARCA4 genes; host or cells: HeLa (SMARCA4-HiBiT engineered line)
- Sequence (P51532 whole entry): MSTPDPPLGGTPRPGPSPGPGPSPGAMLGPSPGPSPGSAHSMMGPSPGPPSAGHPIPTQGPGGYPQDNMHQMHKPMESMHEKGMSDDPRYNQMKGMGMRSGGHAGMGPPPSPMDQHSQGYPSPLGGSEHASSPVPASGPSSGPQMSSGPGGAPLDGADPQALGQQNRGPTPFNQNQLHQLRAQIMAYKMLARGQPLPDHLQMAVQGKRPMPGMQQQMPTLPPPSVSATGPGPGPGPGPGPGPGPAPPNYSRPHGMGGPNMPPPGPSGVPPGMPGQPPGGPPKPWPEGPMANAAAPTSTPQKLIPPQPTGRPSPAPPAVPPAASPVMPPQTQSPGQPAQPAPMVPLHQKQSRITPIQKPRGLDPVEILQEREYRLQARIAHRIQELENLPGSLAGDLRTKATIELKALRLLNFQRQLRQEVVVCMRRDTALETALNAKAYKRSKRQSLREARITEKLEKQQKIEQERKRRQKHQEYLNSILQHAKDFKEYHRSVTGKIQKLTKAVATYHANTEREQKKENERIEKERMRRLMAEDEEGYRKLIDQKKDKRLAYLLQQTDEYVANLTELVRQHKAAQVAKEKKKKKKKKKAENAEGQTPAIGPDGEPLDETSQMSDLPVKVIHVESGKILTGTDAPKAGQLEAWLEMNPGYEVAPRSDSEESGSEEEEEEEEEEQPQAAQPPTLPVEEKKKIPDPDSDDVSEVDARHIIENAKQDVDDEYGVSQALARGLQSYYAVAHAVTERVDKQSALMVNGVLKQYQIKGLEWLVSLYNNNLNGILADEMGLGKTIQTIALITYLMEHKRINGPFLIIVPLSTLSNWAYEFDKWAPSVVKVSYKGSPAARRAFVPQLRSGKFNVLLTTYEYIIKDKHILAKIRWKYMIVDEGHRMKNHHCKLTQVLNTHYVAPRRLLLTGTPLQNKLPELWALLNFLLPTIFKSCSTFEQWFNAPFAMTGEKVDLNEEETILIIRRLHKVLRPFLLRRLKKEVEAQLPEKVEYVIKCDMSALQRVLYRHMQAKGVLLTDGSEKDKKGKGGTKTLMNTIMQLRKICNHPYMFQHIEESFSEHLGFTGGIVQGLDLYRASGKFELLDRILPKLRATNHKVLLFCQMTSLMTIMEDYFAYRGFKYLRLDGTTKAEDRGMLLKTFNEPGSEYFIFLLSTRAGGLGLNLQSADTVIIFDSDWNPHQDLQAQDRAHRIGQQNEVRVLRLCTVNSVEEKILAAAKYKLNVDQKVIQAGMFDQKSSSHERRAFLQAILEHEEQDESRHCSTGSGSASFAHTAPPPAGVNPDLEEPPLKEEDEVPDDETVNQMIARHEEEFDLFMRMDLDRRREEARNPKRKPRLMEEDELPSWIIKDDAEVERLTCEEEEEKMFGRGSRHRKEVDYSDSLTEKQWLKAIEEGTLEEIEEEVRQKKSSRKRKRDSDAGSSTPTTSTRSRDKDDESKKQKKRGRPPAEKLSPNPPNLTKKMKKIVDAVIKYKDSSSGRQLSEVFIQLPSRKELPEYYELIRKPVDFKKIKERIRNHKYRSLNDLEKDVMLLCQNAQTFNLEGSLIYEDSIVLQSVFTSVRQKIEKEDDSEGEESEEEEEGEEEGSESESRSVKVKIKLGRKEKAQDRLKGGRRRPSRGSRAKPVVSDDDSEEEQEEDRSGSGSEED
- measurement_protocol: SMARCA4 degradation assay (HiBiT-fusion HeLa cell line, 24 h, luminescence)
- Type: cell-based
In this section, each of the compounds is paired with its reported DC50.

>  <compound>
CC(=O)N(C)C/C=C/c1nccc(N2CCN(c3cc(-c4ccccc4O)nnc3N)CC[C@H]2C)n1

>  <DC50>
50 to 500 nM

$$$$
>  <compound>
Nc1nnc(-c2ccccc2O)cc1N1CCCN(c2ccnc(C#CCNc3nc4ccccc4o3)n2)CC1

>  <DC50>
50 to 500 nM

$$$$
>  <compound>
Nc1nnc(-c2ccccc2O)cc1N1CCCN(c2ccnc(C#CCN3C4CCC3CC(O)C4)n2)CC1 (stereo not shown)

>  <DC50>
50 to 500 nM

$$$$

Below: the item to evaluate.
Req: Could you tell me which DC50 is on file for CC(C)(C)OC(=O)N1CCCC1C#Cc1nccc(N2CCCN(c3cc(-c4ccccc4O)nnc3N)CC2)n1 (stereo not shown) ?
Resp: 50 to 500 nM
